Test: Evaluation of solubility in organic solvents (visual observation of complete dissolution)
Type: physicochemical
Conditions: chlorobenzene, 25° C.
Listed next: entries and their corresponding solubility (solute concentration completely dissolved).

A selection of reference data follows.
> print(dat)
                                   compound  value.measured
1  CCCCCCCCCCC(F)(F)c1cccc(-c2ccc(-c3c4c(c(-c5ccc(-c6cccc(C(F)(F)CCCCCCCCCC)c6)s5)c5nsnc35)N=S=N4)s2)c1     ≥ 0.03 wt %
2  CCCCCCc1ccc(-c2ccc(-c3c4c(c(-c5ccc(-c6ccc(CCCCCC)c(C#N)c6)s5)c5nsnc35)N=S=N4)s2)cc1C#N      ≥ 0.1 wt %
3  CCCCCCc1ccc(-c2ccc(-c3c4c(c(-c5ccc(-c6ccc(CCCCCC)c(C(F)(F)F)c6)s5)c5nsnc35)N=S=N4)s2)cc1C(F)(F)F     ≥ 0.03 wt %
4  CCCCCCc1cc(-c2ccc(-c3c4c(c(-c5ccc(-c6ccc(C#N)c(CCCCCC)c6)s5)c5nsnc35)N=S=N4)s2)ccc1C#N     ≥ 0.03 wt %
5  CCCCCCc1cc(-c2ccc(-c3c4c(c(-c5ccc(-c6ccc(C(F)(F)F)c(CCCCCC)c6)s5)c5nsnc35)N=S=N4)s2)ccc1C(F)(F)F     ≥ 0.03 wt %

Now consider a different compound.
Recorded result, FC(F)(F)c1ccccc1-c1ccc(-c2c3c(c(-c4ccc(-c5ccccc5C(F)(F)F)s4)c4nsnc24)N=S=N3)s1 [Compound (RR2), reference compound] , solubility (solute concentration completely dissolved): ≥ 0.1 wt %

---

Test: Evaluation of solubility in organic solvents (visual observation of complete dissolution)
Assay type: physicochemical
Details: chlorobenzene, 100° C.
Measured solubility (solute concentration completely dissolved) accompanies every entry in the list below.

molecule	value.measured
CCCCCCCCCCCCCCCCCCc1cc(-c2ccc(-c3c4c(c(-c5ccc(-c6ccc(C#N)c(CCCCCCCCCCCCCCCCCC)c6)s5)c5nsnc35)N=S=N4)s2)ccc1C#N	≥ 0.3 wt %
FC(F)(F)Oc1ccc(-c2ccc(-c3c4c(c(-c5ccc(-c6ccc(OC(F)(F)F)cc6)s5)c5nsnc35)N=S=N4)s2)cc1 [Compound (RC1), reference compound]	< 0.03 wt %

Field: next molecule
Notebook: FC(F)(F)c1cccc(-c2ccc(-c3c4c(c(-c5ccc(-c6cccc(C(F)(F)F)c6)s5)c5nsnc35)N=S=N4)s2)c1 , solubility (solute concentration completely dissolved) read as ≥ 0.3 wt %

---

Assay: Evaluation of solubility in organic solvents (visual observation of complete dissolution)
Assay type: physicochemical
Conditions: toluene, 60° C.
measurement.label: solubility (solute concentration completely dissolved)

Here are 2 compounds together with their reported answers.
compound	value.measured
CCCCCCc1ccc(-c2ccc(-c3c4c(c(-c5ccc(-c6ccc(CCCCCC)c(C(F)(F)F)c6)s5)c5nsnc35)N=S=N4)s2)cc1C(F)(F)F [Compound (C9)]	≥ 0.1 wt %
CCCCCCCCCCC(F)(F)c1ccc(-c2ccc(-c3c4c(c(-c5ccc(-c6ccc(C(F)(F)CCCCCCCCCC)cc6)s5)c5nsnc35)N=S=N4)s2)cc1 [Compound (RC3), reference compound]	< 0.03 wt %

Pending compound:
// recorded solubility (solute concentration completely dissolved) for CCCCCCCCc1ccc(-c2ccc(-c3c4c(c(-c5ccc(-c6ccc(CCCCCCCC)c(C(F)(F)F)c6)s5)c5nsnc35)N=S=N4)s2)cc1C(F)(F)F [Compound (C25)] : ≥ 0.3 wt %
